Hey, just so you know, these numbers are from paper PMC12503906.

Quick reference: IC50 of the listed items.
System: SUIT 2.28
Assay: SRB chemosensitivity assay, SUIT 2.28 cells
Type: cell-based
Details: SRB, 72 h of treatment, average ± SEM, triplicate; read-out: IC50 SUIT 2.28

{"columns": ["COMPOUND", "IC50"],
 "data": [
  ["Nc1ncnc2cc(-c3c[nH]c4ccc(F)cc34)nn12 [Compound 1d]", "600 nM"],
  ["Nc1ncnc2cc(-c3c[nH]c4ccc(Cl)cc34)nn12 [Compound 1c]", "400 nM"],
  ["Nc1ncnc2cc(-c3c[nH]c4ccc(Br)cc34)nn12 [Compound 1b]", "600 nM"],
  ["COc1ccc2[nH]cc(-c3cc4ncnc(N)n4n3)c2c1 [Compound 1e]", "500 nM"],
  ["CC(C)c1cnn2c(NCc3ccccc3-n3cccn3)nc(OC3CCCNC3)nc12 (centres unmarked) [LDC4297, reference compound]", "30 nM"]
]}

* * *

Target: CDK7 (Homo sapiens)
Assay: In vitro CDK7 enzyme inhibition assay (ADP‐Glo)
Type: biochemical
Set-up: purchased Promega Corporation VA7402
PARAMETER MEASURED: IC50

{"columns": ["SMILES TEXT", "STUDY TARGET", "PARAMETER MEASURED", "RESULT"],
 "data": [
  ["Cn1cc(-c2cc3ncnc(N)n3n2)c2cc(Br)ccc21", "CDK7 (Homo sapiens)", "IC50", "28 nM"]
]}

* * *

Quick reference: pIC50 of the listed items.
Target: CDK7 (Homo sapiens, UniProt P50613)
Sequence (P50613 whole entry): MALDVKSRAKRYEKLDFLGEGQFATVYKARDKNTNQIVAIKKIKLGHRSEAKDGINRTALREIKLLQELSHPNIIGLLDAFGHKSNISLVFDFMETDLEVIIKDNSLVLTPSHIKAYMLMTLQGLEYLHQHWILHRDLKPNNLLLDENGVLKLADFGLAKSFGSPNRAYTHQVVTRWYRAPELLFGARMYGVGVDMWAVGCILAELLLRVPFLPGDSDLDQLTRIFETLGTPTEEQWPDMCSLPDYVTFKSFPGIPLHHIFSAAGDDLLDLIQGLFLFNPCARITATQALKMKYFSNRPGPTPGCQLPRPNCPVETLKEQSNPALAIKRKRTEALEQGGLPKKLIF
Sequence (P51946 whole entry partner): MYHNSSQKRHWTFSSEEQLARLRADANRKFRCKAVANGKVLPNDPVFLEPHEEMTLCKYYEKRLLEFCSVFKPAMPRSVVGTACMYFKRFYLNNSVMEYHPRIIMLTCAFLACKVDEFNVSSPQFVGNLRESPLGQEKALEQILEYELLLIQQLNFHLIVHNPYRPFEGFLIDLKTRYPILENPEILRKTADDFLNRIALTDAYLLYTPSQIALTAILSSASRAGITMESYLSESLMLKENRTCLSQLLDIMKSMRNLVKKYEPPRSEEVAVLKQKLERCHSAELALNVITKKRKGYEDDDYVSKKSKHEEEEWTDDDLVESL
Sequence (P51948 whole entry partner): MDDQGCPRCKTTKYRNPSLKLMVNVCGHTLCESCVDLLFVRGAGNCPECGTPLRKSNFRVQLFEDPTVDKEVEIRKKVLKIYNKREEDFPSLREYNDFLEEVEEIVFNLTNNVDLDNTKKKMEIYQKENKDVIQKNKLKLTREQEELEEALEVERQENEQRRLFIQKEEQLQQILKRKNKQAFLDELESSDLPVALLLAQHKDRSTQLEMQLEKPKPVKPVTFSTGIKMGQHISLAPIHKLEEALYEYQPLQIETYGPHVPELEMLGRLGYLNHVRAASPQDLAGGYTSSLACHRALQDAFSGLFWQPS
Assay: In vitro CDK7 enzyme inhibition assay (ADP‐Glo)
Assay type: biochemical
Design: purchased Promega Corporation VA7402
Conditions: ADP‐Glo assay, mean of triplicate experiments; read-out: CDK7 inhibition activity IC50
pIC50: −log10 of the molar value.
PARAMETER MEASURED: pIC50

{"columns": ["MOLECULE", "RESULT"],
 "data": [
  ["CC(C)c1cnn2c(NCc3ccccc3-n3cccn3)nc(OC3CCCNC3)nc12 (centres unmarked) [LDC4297, reference compound]", 8.12],
  ["Nc1ncnc2cc(-c3c[nH]c4ccc(Br)cc34)nn12", 7.60]
]}

* * *

System: PDAC3
Experiment: SRB chemosensitivity assay, primary PDAC3 cells
Assay type: cell-based
Details: SRB, primary cell line, average ± SEM, triplicate; read-out: IC50 PDAC3
pIC50: −log10 of the molar value.

{"columns": ["SMILES TEXT", "STUDY TARGET", "pIC50"],
 "data": [
  ["Nc1ncnc2cc(-c3c[nH]c4ccc(Br)cc34)nn12", "PDAC3", 5.89]
]}
